# test_protocol: recombinant barcode read abundance after kanamycin selection (control-corrected) (log10(CPM+1)); higher = more efficient recombination; sequences stand for … in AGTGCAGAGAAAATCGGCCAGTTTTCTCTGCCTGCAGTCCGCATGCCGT…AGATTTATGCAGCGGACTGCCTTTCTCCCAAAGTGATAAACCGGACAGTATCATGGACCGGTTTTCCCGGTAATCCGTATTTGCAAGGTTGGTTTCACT; site = the 11-nt target
# recombinant barcode read abundance (log10) >= 2 gives yes, anything below gives no

INSERT INTO results (sequence_data, assigned_category) VALUES
  ('TCCAAGGCTTGGGTTCTAACCTGTTGCCT (site TCAAAGGCTAG)', 'no'),
  ('GTAATCCCTTGGGTTCTAACCTGTTGCCG (site GTAATCCCTTG)', 'no'),
  ('TCAGGAGCTTGGGTTCTAACCTGTTGCGG (site TCAGGAGCTCC)', 'yes'),
  ('TAATGAACTTGGGTTCTAACCTGTTGCCT (site TAATGAACTAG)', 'no'),
  ('ATGGGCCCTTGGGTTCTAACCTGTTGCTT (site ATGGGCCCTTA)', 'no'),
  ('TGTAATACTTGGGTTCTAACCTGTTGCCT (site TGTAATCCTAG)', 'no'),
  ('GAGAGGTCTTGGGTTCTAACCTGTTGCGT (site GAGAGGTCTAT)', 'no'),
  ('CAAAGTCCTTGGGTTCTAACCTGTTGCCT (site CAAAGTCCTAC)', 'no'),
  ('AGGGGAGCTTGGGTTCTAACCTGTTGCCT (site AGGGGAGCTAG)', 'no'),
  ('GGTGAGGCTTGGGTTCTAACCTGTTGCAT (site GGTGAGGCTAT)', 'yes'),
  ('GTTCATCCTTGGGTTCTAACCTGTTGCCT (site GTTCATCCTAG)', 'no'),
  ('CTTGACACTTGGGTTCTAACCTGTTGCCT (site CTAGACACTAG)', 'no'),
  ('TGCGCGACTTGGGTTCTAACCTGTTGCCT (site TGCGCCACTAG)', 'no'),
  ('GAGCGTCCTTGGGTTCTAACCTGTTGCAG (site GAGCGTCCTCT)', 'no'),
  ('ATGCCCTCTTGGGTTCTAACCTGTTGCCT (site ATGCCCTCTAG)', 'yes'),
  ('GGCCGGGCTTGGGTTCTAACCTGTTGCGG (site GGCCGGGCTCC)', 'no'),
  ('CCAGGTCCTTGGGTTCTAACCTGTTGCGT (site CCAGGTCCTAT)', 'no'),
  ('GACGGCACTTGGGTTCTAACCTGTTGCGG (site GACGGCACTCC)', 'yes'),
  ('CGGTCCTCTTGGGTTCTAACCTGTTGCGC (site CGGGCCTCTGT)', 'no'),
  ('CCTTCCTCTTGGGTTCTAACCTGTTGCCT (site CGTTCCTCTAG)', 'no');

----------
# test_protocol: recombinant UMI read abundance after kanamycin selection (control-corrected) (log10(CPM+1)); higher = more efficient recombination; extreme values may be limits of the assay; sequences stand for … in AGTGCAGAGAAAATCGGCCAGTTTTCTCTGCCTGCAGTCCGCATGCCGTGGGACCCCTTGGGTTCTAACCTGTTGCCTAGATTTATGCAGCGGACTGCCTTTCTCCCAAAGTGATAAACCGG…AGGTTGGTTTCACT; site = the 11-nt donor
Catalogue of recombinant UMI read abundance (log10) values
experimental_readout: recombinant UMI read abundance (log10)

INSERT INTO measurements (sequence_data, reported_result) VALUES
  ('GAAGATTCATGGACCGGTTTTCCCGGTAATCCGTATTTGCT (site GAAGATTCTAG)', 2.54),
  ('GCTACTGCATGGACCGGTTTTCCCGGTAATCCGTATTTGCC (site GGTACTGCTGG)', 1.03),
  ('GCCCGCACATGGACCGGTTTTCCCGGTAATCCGTATTTGTG (site GCCCGCACTCA)', 0.0672),
  ('CCGTAAGCATGGACCGGTTTTCCCGGTAATCCGTATTTGTG (site CCGTTAGCTCA)', 0.0113),
  ('GTTCGAGCATGGACCGGTTTTCCCGGTAATCCGTATTTGAA (site GTTCGAGCTTG)', 0),
  ('TTTGCGCCATGGACCGGTTTTCCCGGTAATCCGTATTTGCT (site TTTGCGTCTAG)', 0.0103),
  ('GTAGCCGCATGGACCGGTTTTCCCGGTAATCCGTATTTGCG (site GTAGCCGCTCG)', 2.08),
  ('CTTGGCCCATGGACCGGTTTTCCCGGTAATCCGTATTTGTA (site CTTGGCCCTTA)', 0.0132),
  ('ACATCTACATGGACCGGTTTTCCCGGTAATCCGTATTTGTG (site ACATCGACTCA)', 0.0136);

----------
# test_protocol: recombinant barcode read abundance after kanamycin selection (control-corrected) (log10(CPM+1)); higher = more efficient recombination; sequences stand for … in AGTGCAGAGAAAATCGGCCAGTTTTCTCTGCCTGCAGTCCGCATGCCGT…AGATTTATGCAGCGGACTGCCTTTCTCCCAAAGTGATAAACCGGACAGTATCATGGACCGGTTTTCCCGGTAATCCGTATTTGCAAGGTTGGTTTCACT; site = the 11-nt target
experimental_readout: recombinant barcode read abundance (log10)

INSERT INTO results (sequence_data, reported_result) VALUES
  ('GTGATGTCTTGGGTTCTAACCTGTTGCCT (site GGGATGTCTAG)', 0.279),
  ('CAGGATGCTTGGGTTCTAACCTGTTGCCT (site CAGGATGCTAG)', 1.35),
  ('AGACTGACTTGGGTTCTAACCTGTTGCGG (site AGACTGACTCC)', 2.18),
  ('TAGCAGACTTGGGTTCTAACCTGTTGCCT (site TAGCTGACTAG)', 0.0224),
  ('GACATCACTTGGGTTCTAACCTGTTGCCT (site GACATCACTAG)', 0.767);

----------
# test_protocol: recombinant UMI read abundance after kanamycin selection (control-corrected) (log10(CPM+1)); higher = more efficient recombination; extreme values may be limits of the assay; sequences stand for … in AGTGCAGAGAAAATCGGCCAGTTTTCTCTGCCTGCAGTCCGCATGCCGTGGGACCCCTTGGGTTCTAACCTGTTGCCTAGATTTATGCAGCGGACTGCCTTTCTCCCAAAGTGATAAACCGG…AGGTTGGTTTCACT; site = the 11-nt donor
Catalogue of recombinant UMI read abundance (log10) values
experimental_readout: recombinant UMI read abundance (log10)

INSERT INTO results (sequence_data, experimental_readout, reported_result) VALUES
  ('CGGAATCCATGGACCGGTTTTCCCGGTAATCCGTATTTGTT (site GGGAATCCTGA)', 'recombinant UMI read abundance (log10)', 0),
  ('AACCACGCATGGACCGGTTTTCCCGGTAATCCGTATTTGGG (site AAGCACGCTCC)', 'recombinant UMI read abundance (log10)', 0),
  ('GATTGAACATGGACCGGTTTTCCCGGTAATCCGTATTTGAC (site GATTGTACTGT)', 'recombinant UMI read abundance (log10)', 0),
  ('GGCACGTCATGGACCGGTTTTCCCGGTAATCCGTATTTGTT (site GGCACGTCTAA)', 'recombinant UMI read abundance (log10)', 0.595),
  ('AGTCCGACATGGACCGGTTTTCCCGGTAATCCGTATTTGTC (site AGTCCGACTGA)', 'recombinant UMI read abundance (log10)', 0.624),
  ('AGTTGTTCATGGACCGGTTTTCCCGGTAATCCGTATTTGTT (site AGTTGTTCTAA)', 'recombinant UMI read abundance (log10)', 0.233),
  ('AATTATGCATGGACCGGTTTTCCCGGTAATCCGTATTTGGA (site AATTATACTTC)', 'recombinant UMI read abundance (log10)', 0.816),
  ('GCGACGCCATGGACCGGTTTTCCCGGTAATCCGTATTTGTA (site GCGACGCCTTA)', 'recombinant UMI read abundance (log10)', 0.398),
  ('AATGATGCATGGACCGGTTTTCCCGGTAATCCGTATTTGGA (site AATGATGCTTC)', 'recombinant UMI read abundance (log10)', 1.06),
  ('GTTATTCCATGGACCGGTTTTCCCGGTAATCCGTATTTGGT (site GTTATTCCTAC)', 'recombinant UMI read abundance (log10)', 0.469),
  ('CGTACATCATGGACCGGTTTTCCCGGTAATCCGTATTTGCT (site CGGACATCTAG)', 'recombinant UMI read abundance (log10)', 0),
  ('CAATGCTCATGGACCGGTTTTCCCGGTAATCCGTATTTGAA (site CAATGCTCTGT)', 'recombinant UMI read abundance (log10)', 0.818),
  ('AGGAATACATGGACCGGTTTTCCCGGTAATCCGTATTTGAC (site AGGAGTACTGT)', 'recombinant UMI read abundance (log10)', 0),
  ('GCGAAGCCATGGACCGGTTTTCCCGGTAATCCGTATTTGGA (site GCGAAGCCTGC)', 'recombinant UMI read abundance (log10)', 0),
  ('AAGGAGCCATGGACCGGTTTTCCCGGTAATCCGTATTTGGA (site AAGGAGCCTTC)', 'recombinant UMI read abundance (log10)', 0.02),
  ('GTAGTCGCATGGACCGGTTTTCCCGGTAATCCGTATTTGCC (site GTAGTCGCTGG)', 'recombinant UMI read abundance (log10)', 2.93),
  ('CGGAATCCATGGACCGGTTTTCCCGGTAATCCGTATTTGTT (site CGAAATTCTAA)', 'recombinant UMI read abundance (log10)', 0),
  ('GTAGTCGCATGGACCGGTTTTCCCGGTAATCCGTATTTGCC (site GTAGTCGCTAG)', 'recombinant UMI read abundance (log10)', 1.64),
  ('CCAGGTGCATGGACCGGTTTTCCCGGTAATCCGTATTTGAG (site CCAGGTGCTTT)', 'recombinant UMI read abundance (log10)', 0.424),
  ('TCCAATTCATGGACCGGTTTTCCCGGTAATCCGTATTTGCG (site TCCAATTCTGG)', 'recombinant UMI read abundance (log10)', 0),
  ('ACACGCACATGGACCGGTTTTCCCGGTAATCCGTATTTGTC (site ACACGTACTGA)', 'recombinant UMI read abundance (log10)', 0.934),
  ('ACACGAACATGGACCGGTTTTCCCGGTAATCCGTATTTGAC (site ACACGAACTGA)', 'recombinant UMI read abundance (log10)', 1.64),
  ('CGACCCTCATGGACCGGTTTTCCCGGTAATCCGTATTTGCT (site CGATCATCTAG)', 'recombinant UMI read abundance (log10)', 0),
  ('CCTACGGCATGGACCGGTTTTCCCGGTAATCCGTATTTGCG (site CCTACGGCTCG)', 'recombinant UMI read abundance (log10)', 0.00682),
  ('GTTGTACCATGGACCGGTTTTCCCGGTAATCCGTATTTGGT (site GTTGTACCTAC)', 'recombinant UMI read abundance (log10)', 0),
  ('TAGAATACATGGACCGGTTTTCCCGGTAATCCGTATTTGCA (site TATAATACTTG)', 'recombinant UMI read abundance (log10)', 0.633),
  ('TAATAAGCATGGACCGGTTTTCCCGGTAATCCGTATTTGGG (site TAATGAGCTCC)', 'recombinant UMI read abundance (log10)', 0.00879),
  ('TCCCAAACATGGACCGGTTTTCCCGGTAATCCGTATTTGCT (site TCCCAAACTAG)', 'recombinant UMI read abundance (log10)', 0.0138),
  ('GGCAATCCATGGACCGGTTTTCCCGGTAATCCGTATTTGGA (site GGCAATCCTTC)', 'recombinant UMI read abundance (log10)', 0),
  ('TTGAGCACATGGACCGGTTTTCCCGGTAATCCGTATTTGGA (site TTGAGCACTTC)', 'recombinant UMI read abundance (log10)', 0.207),
  ('TTGCATGCATGGACCGGTTTTCCCGGTAATCCGTATTTGGT (site ATGCATGCTAC)', 'recombinant UMI read abundance (log10)', 0.00895),
  ('GGCCATCCATGGACCGGTTTTCCCGGTAATCCGTATTTGAA (site GGCGATCCTTT)', 'recombinant UMI read abundance (log10)', 0.00507),
  ('CCGTTTACATGGACCGGTTTTCCCGGTAATCCGTATTTGCA (site CCGTTTACTTG)', 'recombinant UMI read abundance (log10)', 0),
  ('GACTAGTCATGGACCGGTTTTCCCGGTAATCCGTATTTGTG (site GACTAGTCTCA)', 'recombinant UMI read abundance (log10)', 1.64),
  ('GCCACGCCATGGACCGGTTTTCCCGGTAATCCGTATTTGTG (site GCCACGCCTGA)', 'recombinant UMI read abundance (log10)', 0),
  ('AGCCTAGCATGGACCGGTTTTCCCGGTAATCCGTATTTGTG (site AGCCTAGCTTA)', 'recombinant UMI read abundance (log10)', 0.00858);
